Below is a list of entries, each paired with its recorded SAGPY value.
Tested on: Sagittaria pygmaea, L.
Assay: Preemergence weed control under flooded paddy conditions, SAGPY (Arrowhead (Pygmaea))
Type: in vivo
Conditions: 0.2500 kg/ha; preemergence weeds, flooded paddy; herbicidal effect rating 0-9, three to four weeks after treatment
readoutType: SAGPY

• Cc1ccc(OCC(=O)N(C)S(C)(=O)=O)c(-c2nsc3ccc(-n4c(=O)cc(C(F)(F)F)n(C)c4=O)cc23)c1 = 7.0
• CCOCN(C(=O)c1nsc2ccc(-n3c(=O)cc(C(F)(F)F)n(C)c3=O)cc12)S(=O)(=O)Cc1ccccc1 = 9.0
• Cn1c(C(F)(F)F)cc(=O)n(-c2ccc3snc(C(C#N)=CC4CC4)c3c2)c1=O = 8.0
• COc1ccc(C)cc1-c1nsc2cc(Cl)c(-n3c(=O)cc(C(F)(F)F)n(C)c3=O)cc12 = 4.0
• Cc1ccc(OCC(=O)O)c(-c2noc3cc(F)c(-n4c(=O)cc(C(F)(F)F)n(C)c4=O)cc23)c1 = 4.0
• Cn1c(C(F)(F)F)cc(=O)n(-c2ccc3snc(C(Br)S(=O)(=O)c4ccccc4)c3c2)c1=O (stereo not drawn) = 7.0
